Tested on: Escherichia coli TOP10
method: shrunken log2 fold change of peptide-encoding DNA abundance (4.5 h post-induction vs induction); higher = less antimicrobial activity (less host growth inhibition)
conditions: time post-induction: 4.5 h; library: site-saturation at positions 5, 18, 19, 20
Listed here are sequences together with their documented shrunken log2 fold change.
experimental_endpoint: shrunken log2 fold change

* RRIRKRPPRLPRPRPRPTVLPRP | 0.0143
* RRIRHRPPRLPRPRPRPQNDPRP | 0.0173
* RRIRARPPRLPRPRPRPMVNPRP | 0.309
* RRIRMRPPRLPRPRPRPWAYPRP | -0.012
* RRIRCRPPRLPRPRPRPTWKPRP | -0.114
* RRIRARPPRLPRPRPRPLQGPRP | 0.0704
* RRIRERPPRLPRPRPRPMGRPRP | 0.0998
* RRIRERPPRLPRPRPRPKKNPRP | -0.0468
* RRIRCRPPRLPRPRPRPTEPPRP | 0.305
* RRIRKRPPRLPRPRPRPTGQPRP | 0.84
* RRIRARPPRLPRPRPRPVKKPRP | 0.147
* RRIRRRPPRLPRPRPRPPMGPRP | 0.554
* RRIRKRPPRLPRPRPRPTATPRP | 1.4
* RRIRERPPRLPRPRPRPQIQPRP | 0.136
* RRIRWRPPRLPRPRPRPLNPPRP | -0.0128

----------
System: Escherichia coli TOP10
method: shrunken log2 fold change of peptide-encoding DNA abundance (4.5 h post-induction vs induction); higher = less antimicrobial activity (less host growth inhibition)
conditions: time post-induction: 4.5 h; library: site-saturation at positions 5, 18, 19, 20
Rule: shrunken log2 fold change under -0.01 gives NO, otherwise YES.

• RRIRKRPPRLPRPRPRPRPKPRP = YES
• RRIRKRPPRLPRPRPRPDTQPRP = YES
• RRIRLRPPRLPRPRPRPGPCPRP = YES
• RRIRCRPPRLPRPRPRPCNFPRP = NO
• RRIRERPPRLPRPRPRPQGSPRP = NO
• RRIRTRPPRLPRPRPRPNEQPRP = NO
• RRIRIRPPRLPRPRPRPACWPRP = YES
• RRIRQRPPRLPRPRPRPTGMPRP = YES
• RRIRHRPPRLPRPRPRPLHVPRP = YES
• RRIRCRPPRLPRPRPRPRSAPRP = YES
• RRIRERPPRLPRPRPRPWVIPRP = YES
• RRIRLRPPRLPRPRPRPNRTPRP = YES
• RRIRTRPPRLPRPRPRPGDVPRP = YES
• RRIRHRPPRLPRPRPRPYEYPRP = NO
• RRIRSRPPRLPRPRPRPENSPRP = NO

----------
Tested on: Escherichia coli TOP10
method: shrunken log2 fold change of peptide-encoding DNA abundance (4.5 h post-induction vs induction); higher = less antimicrobial activity (less host growth inhibition)
conditions: time post-induction: 4.5 h; library: site-saturation at positions 5, 18, 19, 20
Rule: shrunken log2 fold change under 0.07 gives no, otherwise yes.

- RRIRPRPPRLPRPRPRPCQDPRP: no
- RRIRRRPPRLPRPRPRPTQSPRP: yes
- RRIRPRPPRLPRPRPRPNISPRP: no
- RRIRFRPPRLPRPRPRPQIVPRP: yes
- RRIRIRPPRLPRPRPRPKYVPRP: no
- RRIRVRPPRLPRPRPRPVLDPRP: no
- RRIRVRPPRLPRPRPRPRENPRP: yes
- RRIRERPPRLPRPRPRPACKPRP: yes
- RRIRARPPRLPRPRPRPSDVPRP: yes
- RRIRTRPPRLPRPRPRPPANPRP: no
- RRIRTRPPRLPRPRPRPWRHPRP: no
- RRIRQRPPRLPRPRPRPHGLPRP: no
- RRIRGRPPRLPRPRPRPNDSPRP: no
- RRIRDRPPRLPRPRPRPSWPPRP: yes

----------
Test system: Escherichia coli TOP10
method: shrunken log2 fold change of peptide-encoding DNA abundance (4.5 h post-induction vs induction); higher = less antimicrobial activity (less host growth inhibition)
conditions: time post-induction: 4.5 h; library: site-saturation at positions 5, 18, 19, 20
Rule: shrunken log2 fold change under 0.1 gives Not fulfilled, otherwise Fulfilled.

• RRIRLRPPRLPRPRPRPMSNPRP = Not fulfilled
• RRIRLRPPRLPRPRPRPAIVPRP = Not fulfilled
• RRIRTRPPRLPRPRPRPTRRPRP = Fulfilled
• RRIRPRPPRLPRPRPRPVEEPRP = Fulfilled
• RRIRLRPPRLPRPRPRPDCSPRP = Not fulfilled
• RRIRDRPPRLPRPRPRPWLQPRP = Fulfilled
• RRIRQRPPRLPRPRPRPTLCPRP = Not fulfilled
• RRIRWRPPRLPRPRPRPRQFPRP = Not fulfilled
• RRIRYRPPRLPRPRPRPGWGPRP = Not fulfilled
• RRIRFRPPRLPRPRPRPAHHPRP = Not fulfilled
• RRIRCRPPRLPRPRPRPRNMPRP = Not fulfilled
• RRIRRRPPRLPRPRPRPTMMPRP = Fulfilled
• RRIRRRPPRLPRPRPRPAGDPRP = Fulfilled
• RRIRPRPPRLPRPRPRPDHNPRP = Not fulfilled
• RRIRLRPPRLPRPRPRPCDMPRP = Not fulfilled
• RRIRERPPRLPRPRPRPSGRPRP = Fulfilled
• RRIRRRPPRLPRPRPRPEWYPRP = Not fulfilled
• RRIRWRPPRLPRPRPRPCTMPRP = Not fulfilled
• RRIRMRPPRLPRPRPRPLAQPRP = Fulfilled
• RRIRNRPPRLPRPRPRPSADPRP = Fulfilled
• RRIRVRPPRLPRPRPRPYHSPRP = Not fulfilled
• RRIRERPPRLPRPRPRPFATPRP = Fulfilled
• RRIRKRPPRLPRPRPRPFKFPRP = Not fulfilled
• RRIRCRPPRLPRPRPRPTSYPRP = Not fulfilled
• RRIRYRPPRLPRPRPRPKGQPRP = Not fulfilled
• RRIRMRPPRLPRPRPRPRHWPRP = Fulfilled
• RRIRTRPPRLPRPRPRPITMPRP = Not fulfilled
• RRIRWRPPRLPRPRPRPRESPRP = Fulfilled
• RRIRMRPPRLPRPRPRPYDPPRP = Not fulfilled
• RRIRRRPPRLPRPRPRPPGEPRP = Fulfilled
• RRIRGRPPRLPRPRPRPFGYPRP = Not fulfilled

----------
Tested on: Escherichia coli TOP10
method: shrunken log2 fold change of peptide-encoding DNA abundance (4.5 h post-induction vs induction); higher = less antimicrobial activity (less host growth inhibition)
conditions: time post-induction: 4.5 h; library: site-saturation at positions 5, 18, 19, 20
Rule: shrunken log2 fold change under -0.02 gives not satisfied, otherwise satisfied.

• RRIRARPPRLPRPRPRPDLMPRP = satisfied
• RRIRMRPPRLPRPRPRPHHAPRP = satisfied
• RRIRPRPPRLPRPRPRPGPYPRP = satisfied
• RRIRLRPPRLPRPRPRPPFNPRP = not satisfied
• RRIRLRPPRLPRPRPRPGPIPRP = satisfied
• RRIRHRPPRLPRPRPRPVIHPRP = not satisfied
• RRIRHRPPRLPRPRPRPFFKPRP = not satisfied
• RRIRKRPPRLPRPRPRPPRHPRP = satisfied

----------
System: Escherichia coli TOP10;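 note: peptides expressed intracellularly from a pBAD plasmid library in pooled LB shake-flask culture, induced with 0.3% L-arabinose, DNA abundance read by NGS, three biological replicates, DESeq2 with apeglm shrinkage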
method: shrunken log2 fold change of peptide-encoding DNA abundance (4.5 h post-induction vs induction); higher = less antimicrobial activity (less host growth inhibition)
conditions: time post-induction: 4.5 h; library: site-saturation at positions 5, 18, 19, 20
Rule: shrunken log2 fold change under 0.02 gives false, otherwise true.

- RRIRERPPRLPRPRPRPPVRPRP: true
- RRIRFRPPRLPRPRPRPVVWPRP: true
- RRIRVRPPRLPRPRPRPRGHPRP: true
- RRIRGRPPRLPRPRPRPDEHPRP: true
- RRIRKRPPRLPRPRPRPGPGPRP: true
- RRIRRRPPRLPRPRPRPRPVPRP: true
- RRIRERPPRLPRPRPRPYPRPRP: false
- RRIRMRPPRLPRPRPRPLRKPRP: true
- RRIRQRPPRLPRPRPRPVVHPRP: false
- RRIRLRPPRLPRPRPRPHRTPRP: false
- RRIRERPPRLPRPRPRPIPHPRP: false
- RRIRYRPPRLPRPRPRPYKVPRP: false
- RRIRSRPPRLPRPRPRPRHYPRP: false
- RRIRMRPPRLPRPRPRPEHQPRP: false
- RRIRMRPPRLPRPRPRPGSHPRP: true
- RRIRFRPPRLPRPRPRPFFEPRP: true
- RRIRDRPPRLPRPRPRPMGYPRP: false
- RRIRRRPPRLPRPRPRPPCEPRP: true
- RRIRNRPPRLPRPRPRPFVNPRP: false
- RRIRLRPPRLPRPRPRPEDMPRP: true
- RRIRFRPPRLPRPRPRPKKEPRP: true
- RRIRTRPPRLPRPRPRPYDGPRP: false
- RRIRKRPPRLPRPRPRPRSKPRP: true
- RRIRYRPPRLPRPRPRPVTPPRP: false
- RRIRRRPPRLPRPRPRPIKTPRP: false
- RRIRRRPPRLPRPRPRPWEDPRP: true
- RRIRMRPPRLPRPRPRPWCHPRP: true
- RRIRRRPPRLPRPRPRPSPQPRP: true
- RRIRIRPPRLPRPRPRPRGWPRP: true
- RRIRPRPPRLPRPRPRPLCLPRP: false
- RRIRYRPPRLPRPRPRPGSWPRP: true
- RRIRNRPPRLPRPRPRPVMQPRP: false
